# reported pEC50; entries follow
TESTED SYSTEM: Glycogen synthase kinase-3 beta (Homo sapiens, UniProt P49841)
Sequence (P49841 whole entry): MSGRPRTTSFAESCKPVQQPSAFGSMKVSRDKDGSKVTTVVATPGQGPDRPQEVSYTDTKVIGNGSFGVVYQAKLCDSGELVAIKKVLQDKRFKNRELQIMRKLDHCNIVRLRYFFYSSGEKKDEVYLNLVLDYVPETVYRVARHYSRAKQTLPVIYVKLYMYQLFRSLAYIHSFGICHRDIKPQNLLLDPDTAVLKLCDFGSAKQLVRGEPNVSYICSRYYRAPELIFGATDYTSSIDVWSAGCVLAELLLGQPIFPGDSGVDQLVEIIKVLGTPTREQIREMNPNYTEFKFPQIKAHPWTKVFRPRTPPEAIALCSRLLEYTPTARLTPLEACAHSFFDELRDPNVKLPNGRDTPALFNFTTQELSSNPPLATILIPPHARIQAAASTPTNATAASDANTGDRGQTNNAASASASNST
ASSAY PROTOCOL: concentration-response blocking of human GSK3B – biochemical, luminescence, cell-free homogeneous, retest, dose response (AID 434954)
// returns pEC50 (minus log10 of molar concentration), number only

Request: Tell me pEC50 reported for `CN(C)Cc1c(C(=O)NN=Cc2ccoc2)nnn1-c1nonc1N`
Response: 5.66

Request: Tell me pEC50 reported for CSc1nc(NCC(C)O)c2c3c(sc2n1)CN(C)CC3 (stereo not given)
Response: 4.74

Request: Tell me pEC50 reported for Cc1[nH]nc2c1C(c1cccc(O)c1)C1C(=O)CC(C)(C)CC1=N2 (stereo not given)
Response: 6.38
